# TGT: Human PTP1B (Homo sapiens, UniProt P18031)
# Construct: His6 (N); made in house; host or cells: E. coli BL21 DE3
# Sequence (P18031 1-435): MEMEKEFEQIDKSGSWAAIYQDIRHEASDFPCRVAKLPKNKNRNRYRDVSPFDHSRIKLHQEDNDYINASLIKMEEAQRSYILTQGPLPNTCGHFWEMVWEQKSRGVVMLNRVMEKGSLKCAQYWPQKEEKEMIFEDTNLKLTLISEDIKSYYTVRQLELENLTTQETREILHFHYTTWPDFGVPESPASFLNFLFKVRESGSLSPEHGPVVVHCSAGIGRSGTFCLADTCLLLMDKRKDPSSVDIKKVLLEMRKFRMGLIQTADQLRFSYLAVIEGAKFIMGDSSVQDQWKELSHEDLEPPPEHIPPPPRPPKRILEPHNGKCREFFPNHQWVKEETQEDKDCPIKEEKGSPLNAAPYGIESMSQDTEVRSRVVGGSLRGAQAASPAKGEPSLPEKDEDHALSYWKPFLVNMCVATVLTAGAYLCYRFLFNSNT
# PROTOCOL DESCRIPTION: In vitro phosphatase activity assay (DiFMUP assay)
# Format: biochemical
# REPORTED CONDITIONS: DiFMUP assay at room temperature; positive control ABBV-CLS-484, negative control DMSO
# From the text: To determine the value of CHBOs in drug discovery, we constructed a synthetically accessible library of CHBOs based on the substrate scope of the reaction we newly developed. […] The fluorescence intensity at 455 nm was read using a multifunctional reader with 358 nm as the excitation light, and the measured fluorescence value was used to calculate the inhibition rate of the enzyme activity by the sample over the value of the blank wells. […]
PTP1B lC50 by entry:
Please state the figure in µM; there is no need to write the unit.

Lab book: PTP1B lC50 of CC1(C)[C@H]2CC=C(CCOC(=O)c3ccc(CN4C(=O)[C@](O)([C@H]5C=C(c6ccccc6)C(=O)O5)c5c(Br)cccc54)cc3)[C@@H]1C2 noted as 0.29

Lab book: PTP1B lC50 of O=C1O[C@@H]([C@@]2(O)C(=O)Nc3ccccc32)C=C1c1ccccc1 noted as 6.93

Lab book: PTP1B lC50 of COc1ccc(C2=C[C@H]([C@@]3(O)C(=O)N(Cc4ccccc4)c4cccc(Br)c43)OC2=O)cc1OC noted as 22.65

Lab book: PTP1B lC50 of COc1ccc(C2=C[C@H]([C@@]3(O)C(=O)N(Cc4ccccc4)c4ccccc43)OC2=O)cc1 noted as 7.82

Lab book: PTP1B lC50 of O=C1O[C@@H]([C@@]2(O)C(=O)N(Cc3ccccc3)c3cccc(I)c32)C=C1c1ccccc1 noted as 8.17

Lab book: PTP1B lC50 of O=C1O[C@@H]([C@@]2(O)C(=O)N(Cc3ccc(C(=O)NC45CC6CC(CC(C6)C4)C5)cc3)c3cccc(Br)c32)C=C1c1ccccc1 noted as 2.11

Lab book: PTP1B lC50 of COc1ccc2c(c1)[C@@](O)([C@H]1C=C(c3ccccc3)C(=O)O1)C(=O)N2Cc1ccccc1 noted as 21.65

Lab book: PTP1B lC50 of O=C1O[C@@H]([C@@]2(O)C(=O)Nc3ccccc32)C(c2ccccc2)=C1c1ccccc1 noted as 4.03

Lab book: PTP1B lC50 of COc1ccc2c(c1)N(Cc1ccccc1)C(=O)[C@]2(O)[C@H]1C=C(c2ccccc2)C(=O)O1 noted as 8.23

Lab book: PTP1B lC50 of Cc1ccc2c(c1Br)[C@@](O)([C@H]1C=C(c3ccccc3)C(=O)O1)C(=O)N2Cc1ccccc1 noted as 8.13

Lab book: PTP1B lC50 of COc1ccc(C2=C[C@H]([C@@]3(O)C(=O)N(Cc4ccccc4)c4cccc(Br)c43)OC2=O)cc1 noted as 11.17

Lab book: PTP1B lC50 of Cc1ccc(C2=C[C@H]([C@@]3(O)C(=O)N(Cc4ccccc4)c4cccc(Br)c43)OC2=O)cc1 noted as 9.13

Lab book: PTP1B lC50 of O=C1O[C@@H]([C@@]2(O)C(=O)N(Cc3ccccc3)c3ccc(Cl)cc32)C=C1c1ccccc1 noted as 15.17

###

# TGT: Human PTP1B (Homo sapiens, UniProt P18031)
# Construct: His6 (N); made in house; host or cells: E. coli BL21 DE3
# PROTOCOL DESCRIPTION: In vitro phosphatase activity assay (DiFMUP assay)
# Type: biochemical
ATTRIBUTE MEASURED: IC50

O=C1OC(C2(O)C(=O)N(Cc3ccccc3)c3cccc(Br)c32)C=C1c1ccc2c(c1)OCO2 (stereo not drawn) | 290 to 1580 nM

Below: the item to evaluate.
Lab book: IC50 of O=C1O[C@@H]([C@@]2(O)C(=O)N(Cc3ccccc3)c3cccc(Br)c32)C=C1c1ccc2ccccc2c1 [(R, R)-3ak] noted as 3310 nM

###

# TGT: Human PTP1B (Homo sapiens, UniProt P18031)
# Construct: His6 (N); made in house; host or cells: E. coli BL21 DE3
# PROTOCOL DESCRIPTION: In vitro phosphatase activity assay (DiFMUP assay)
# Type: biochemical
# REPORTED CONDITIONS: read-out: PTP1B lC50; DiFMUP assay at room temperature; positive control ABBV-CLS-484, negative control DMSO
ATTRIBUTE MEASURED: IC50

Short answer on Human PTP1B (Homo sapiens, UniProt P18031) for Cc1ccc2c(c1)C(O)(C1C=C(c3ccccc3)C(=O)O1)C(=O)N2Cc1ccccc1 (stereo not shown) , IC50: 9.08 µM

###

# TGT: Human PTP1B (Homo sapiens, UniProt P18031)
# Construct: His6 (N); made in house; host or cells: E. coli BL21 DE3
# PROTOCOL DESCRIPTION: In vitro phosphatase activity assay (DiFMUP assay)
# Assay type: biochemical
# Text: To determine the value of CHBOs in drug discovery, we constructed a synthetically accessible library of CHBOs based on the substrate scope of the reaction we newly developed. […] The fluorescence intensity at 455 nm was read using a multifunctional reader with 358 nm as the excitation light, and the measured fluorescence value was used to calculate the inhibition rate of the enzyme activity by the sample over the value of the blank wells. […]
ATTRIBUTE MEASURED: IC50

Lab book: IC50 of O=C1O[C@H]([C@]2(O)C(=O)N(Cc3ccccc3)c3cccc(Br)c32)C=C1c1ccc2ccccc2c1 [(S, S)-3ak] noted as 0.81 µM

Lab book: IC50 of O=C1O[C@@H]([C@@]2(O)C(=O)N(Cc3ccccc3)c3ccccc32)C=C1c1ccccc1 noted as 10 to 30 µM

Lab book: IC50 of CC1CCC(C(C)C)C(OC(=O)c2ccc(C3=C(c4ccccc4)C(=O)OC3C3(O)C(=O)Nc4ccccc43)cc2)C1 (stereo not shown) noted as 0.29 to 1.58 µM

Lab book: IC50 of O=C1O[C@@H]([C@@]2(O)C(=O)N(Cc3ccccc3)c3cccc(Cl)c32)C=C1c1ccccc1 noted as 10 to 30 µM
